These data points were gathered from PubChem BioAssay AID1159580.

# Experimental protocol: chemical genetic growth profiling, strain panel (AID 1159580);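 also: tested at 20 µM; growth read once vehicle control cultures reached saturation at 30 °C; 1 = growth at the plate median or of vehicle wells; lower values mean less growth of the strain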
# Condition notes: S. cerevisiae deletion strains, growth OD, locus YOR070C, strain gyp1, stronger effect = lower value
Screen size: about 5,500 compounds; about 2,000 (36%) were called active. About 18% were inconclusive and are not listed. The list shows a part of the results.
Property: normalized growth; scope: individual molecules
No unit in the answer, please; the number alone is enough.

Solved cases (4 shown):
{"columns": ["Molecule", "Result type", "Observed value"],
 "data": [
  ["O=c1[nH]c2ccccc2n1C1CCN(CCCC(c2ccc(F)cc2)c2ccc(F)cc2)CC1", "normalized growth", 0.963],
  ["COc1cc2ccc(=O)oc2cc1O", "normalized growth", 0.975],
  ["C=C(C)c1cc2cc(C(C)=O)c(O)cc2o1", "normalized growth", 0.979],
  ["CC(C)=CCC1=C(O)c2ccccc2C(=O)C1=O", "normalized growth", 0.821]
]}

Lookup: Field request: normalized growth | item: `O=c1[nH]c2ccccc2n1CCCN1CCC(n2c(=O)[nH]c3cc(Cl)ccc32)CC1`
Found: 0.991

Lookup: Requested field: normalized growth. Item: `COc1cc(O)c(C(C)=O)c(OC)c1`
Found: 0.998

Lookup: Request the reported normalized growth associated with CC(C)CCCC(C)[C@H]1CCC2C3CC[C@H]4CC(=O)CC[C@]4(C)C3CC[C@@]21C (stereo partly drawn)
Found: 0.994

Lookup: GET /values?readout=normalized growth&item= `O=c1ccc2cc(O[C@@H]3O[C@H](CO)[C@@H](O)[C@H](O)[C@H]3O)c(O)cc2o1`
Found: 0.981

Lookup: Recorded normalized growth of CC(=O)OCC(=O)[C@@]1(O)CCC2C3CCC4=CC(=O)CC[C@]4(C)[C@@]3(F)[C@@H](O)C[C@@]21C (stereo partly drawn) , please.
Found: 1.03

---

# Experimental protocol: chemical genetic growth profiling, strain panel (AID 1159580)
# Condition notes: S. cerevisiae deletion strains, growth OD, locus YJL095W, strain BCK1
Screen size: about 5,500 compounds; about 2,000 (36%) were called active. Inconclusive results (about 18%) are left out. Rule as the data show it: active = normalized growth mostly below about 0.91 (no sharp cut-off); inconclusive = no clear call, values can overlap the other calls; inactive = mostly above about 0.92. Some of the results follow.
Your response should consist of one outcome taken from label 1 = active, label 0 = inactive

Solved entries (count: 10):
{"columns": ["Molecule", "Class label"],
 "data": [
  ["S=C(NCc1ccco1)Nc1ccc(Oc2ccc(Cl)cc2)cc1", "label 0"],
  ["O=C(Oc1ccc(C2SCCS2)cc1)c1cccs1", "label 0"],
  ["COP(=S)(OC)Oc1cc(Cl)c(Cl)cc1Cl", "label 1"],
  ["CC(Oc1ccc(Cl)cc1Cl)C(=O)NNC(=S)Nc1ccccc1 (configuration not stated)", "label 0"],
  ["COc1cc(O)c(C(=O)c2ccccc2)c(OC)c1", "label 0"],
  ["COc1cc(O)cc(O)c1C(C)=O", "label 0"],
  ["Cc1nccc2c1[nH]c1ccccc12", "label 0"],
  ["N#C/C(=C\\c1ccc(C(F)(F)F)cc1)c1ccc(O)cc1", "label 1"],
  ["Cc1c(Cl)cccc1N=C1SCC(=O)N1Cc1ccco1", "label 0"],
  ["CC(NC(=S)Nc1ccc(Oc2ccc(Cl)cc2)cc1)c1ccccc1 (configuration not stated)", "label 0"]
]}

Lookup: # fetch the recorded call for `COC(=O)c1ccc(Oc2c(C(F)(F)F)oc3cc(O)ccc3c2=O)cc1` here
Found: label 0

Lookup: State the result this test recorded for `COc1cc(O)c(C(C)=O)c(O)c1` .
Found: label 0

---

# Experimental protocol: chemical genetic growth profiling, strain panel (AID 1159580)
# Condition notes: S. cerevisiae deletion strains, growth OD, locus YOL006C, strain TOP1
About 2,000 (36%) of roughly 5,500 compounds were called active. Another 18% or so got no clear call; they are omitted. Rule as the data show it: active = normalized growth mostly below about 0.91 (no sharp cut-off); inconclusive = no clear call, values can overlap the other calls; inactive = mostly above about 0.92. Some of the results follow.
Respond with a class label; see active, inactive

Example results:
{"columns": ["Compound", "Class label"],
 "data": [
  ["CC(C)=CCC1=C(O)c2ccccc2C(=O)C1=O", "active"],
  ["Cc1cc(O)c2c(c1O)C(=O)c1c(O)cc(C)c(O)c1C2=O", "active"],
  ["COc1cc2c(cc1-c1coc3c4c(c(OC)cc3c1=O)OC(C)(C)C=C4)OCO2", "inactive"],
  ["COC(=O)c1ccccc1-n1cccc1C(=O)OC", "inactive"],
  ["N#C/C(=C\\c1ccc(O)cc1)C(=O)O", "inactive"],
  ["CCCCCN=C(N)N/N=C\\c1c[nH]c2ccc(OC)cc12", "inactive"]
]}

Lookup: Please state the recorded outcome for this compound: `COP(=S)(OC)SCn1nnc2ccccc2c1=O`
Found: inactive

Lookup: What outcome does the record of this test show for `C=C(C)c1cc2cc(C(C)=O)c(O)cc2o1` ?
Found: inactive

---

# Experimental protocol: chemical genetic growth profiling, strain panel (AID 1159580);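 also: tested at 20 µM; growth read once vehicle control cultures reached saturation at 30 °C; 1 = growth at the plate median or of vehicle wells; lower values mean less growth of the strain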
# Condition notes: S. cerevisiae deletion strains, growth OD, locus YPL240C, strain hsp82, stronger effect = lower value
In all, about 5,500 compounds went through this assay and about 2,000 (36%) were called active. Another 18% or so got no clear call; they are omitted. The list shows a part of the results.
Result type: normalized growth
Lab note: jot the number down without any unit.

Lookup: Report normalized growth for `O=c1[nH]c2ccccc2n1CCCN1CCC(n2c(=O)[nH]c3cc(Cl)ccc32)CC1` please.
Found: 0.997

---

Attribute: normalized growth
# Experimental protocol: chemical genetic growth profiling, strain panel (AID 1159580);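 also: tested at 20 µM; growth read once vehicle control cultures reached saturation at 30 °C; 1 = growth at the plate median or of vehicle wells; lower values mean less growth of the strain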
# Condition notes: S. cerevisiae deletion strains, growth OD, locus YDL134C, strain PPH21, stronger effect = lower value
Hit rate of the full screen: of about 5,500 compounds, about 2,000 (36%) were called active. Not shown: some 18% with an inconclusive outcome. Some of the results follow.

# annotated cases, reported normalized growth shown
{"columns": ["Line notation", "normalized growth"],
 "data": [
  ["COc1cc(O)c(C(C)=O)c(OC)c1", "0.999 (inactive)"],
  ["COc1cc(O)c(C(=O)c2ccccc2)c(OC)c1", "0.984 (inactive)"],
  ["c1ccc2c(c1)-c1cccc3cccc-2c13", "0.873 (active)"],
  ["O=C(CSc1nnc(-c2ccco2)n1-c1ccc2c(c1)OCCO2)c1cccc(F)c1", "1 (inactive)"],
  ["CC1=C2[C@](C)(C=CC1=O)C[C@H](O)[C@H]1[C@H](C)C(=O)O[C@]21C", "1.01 (inactive)"]
]}

Now take the following compound into account.
Lookup: Quick one: normalized growth of `S=c1[nH]nc(-c2ccco2)n1-c1ccc2c(c1)OCCO2` ?
Found: 0.991 (inactive)

---

# Experimental protocol: chemical genetic growth profiling, strain panel (AID 1159580);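 also: tested at 20 µM; growth read once vehicle control cultures reached saturation at 30 °C; 1 = growth at the plate median or of vehicle wells; lower values mean less growth of the strain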
# Condition notes: S. cerevisiae deletion strains, growth OD, locus YIR030C, strain dcg1
In all, about 5,500 compounds went through this assay and about 2,000 (36%) were called active. Inconclusive results (about 18%) are left out. Rule as the data show it: active = normalized growth mostly below about 0.91 (no sharp cut-off); inconclusive = no clear call, values can overlap the other calls; inactive = mostly above about 0.92. The list shows a part of the results.
Entry note: the call must match one of 1 (yes) = active, 0 (no) = inactive

The examples below pair each entry with its known result.
{"columns": ["Compound", "Class label"],
 "data": [
  ["COc1cc(O)c(C(=O)O)c(O)c1", "0 (no)"],
  ["COc1cc2ccc(=O)oc2c(O)c1O", "0 (no)"],
  ["COc1cc2c(cc1-c1coc3c4c(c(OC)cc3c1=O)OC(C)(C)C=C4)OCO2", "0 (no)"],
  ["COc1cc2ccc(=O)oc2cc1O", "0 (no)"],
  ["COc1c2c(cc3occ(-c4ccc5c(c4)OCO5)c(=O)c13)OC(C)(C)C=C2", "0 (no)"],
  ["C/C=C(\\C)C(=O)OC1[C@@H]2C=C3C4CC(=O)O[C@@H](c5ccoc5)[C@]4(C)CCC3[C@@](C)(C2=O)[C@@H](C(O)C(=O)OC)C1(C)C (stereo not given in full)", "0 (no)"],
  ["COC(=O)C[C@H]1C(C)(C)C(OC(C)=O)[C@]2(O)C=C3C4CC(=O)O[C@@H](c5ccoc5)[C@]4(C)CCC3[C@@]1(C)C2=O (stereo not given in full)", "0 (no)"],
  ["CC1=C2CCC3C(CC[C@]4(C)C(=O)CCC34)[C@@]2(C)CCC1=O (stereo not given in full)", "0 (no)"]
]}

Lookup: Please indicate how the test categorized `CC1(C)C[C@@H]2C(=O)CC[C@H]3O[C@]3(C)CC[C@H]21` .
Found: 0 (no)

Lookup: Please let me know the test result on file for `CC(C)=CCOc1c2occc2cc2ccc(=O)oc12` .
Found: 1 (yes)

Lookup: Per the records of this test, what outcome belongs to O=C1OC(=O)C2C3CCC(O3)C12 (stereo not given) ?
Found: 0 (no)

Lookup: For `COC(=O)C1=CO[C@@H](O[C@@H]2O[C@H](CO)[C@@H](O)[C@H](O)[C@H]2O)[C@@H]2[C@@H](C)[C@@H](O)C[C@H]12` , which call appears in the assay record?
Found: 0 (no)

Lookup: Which outcome did this test record for the compound `O=C(O)c1cc2cc(Cl)ccc2[nH]1` ?
Found: 0 (no)

Lookup: Recorded test call requested for C[C@]12CCC3C(CC[C@H]4C[C@@H](O)CC[C@]34C)C1CCC2=O (stereo not given in full)
Found: 1 (yes)

Lookup: Please state the recorded outcome for this compound: C[C@]12CCC3C(CC[C@H]4C[C@@H](Cl)CC[C@]34C)C1CCC2=O (stereo not given in full)
Found: 0 (no)
